Origin of the recorded values: paper PMC4336329

target desc: human ether-à-go-go-related gene (hERG) potassium channel (human);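 further: peak tail current of the secondary pulse compared with the same well before compound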
Sequence (Q12809 whole entry, looked up): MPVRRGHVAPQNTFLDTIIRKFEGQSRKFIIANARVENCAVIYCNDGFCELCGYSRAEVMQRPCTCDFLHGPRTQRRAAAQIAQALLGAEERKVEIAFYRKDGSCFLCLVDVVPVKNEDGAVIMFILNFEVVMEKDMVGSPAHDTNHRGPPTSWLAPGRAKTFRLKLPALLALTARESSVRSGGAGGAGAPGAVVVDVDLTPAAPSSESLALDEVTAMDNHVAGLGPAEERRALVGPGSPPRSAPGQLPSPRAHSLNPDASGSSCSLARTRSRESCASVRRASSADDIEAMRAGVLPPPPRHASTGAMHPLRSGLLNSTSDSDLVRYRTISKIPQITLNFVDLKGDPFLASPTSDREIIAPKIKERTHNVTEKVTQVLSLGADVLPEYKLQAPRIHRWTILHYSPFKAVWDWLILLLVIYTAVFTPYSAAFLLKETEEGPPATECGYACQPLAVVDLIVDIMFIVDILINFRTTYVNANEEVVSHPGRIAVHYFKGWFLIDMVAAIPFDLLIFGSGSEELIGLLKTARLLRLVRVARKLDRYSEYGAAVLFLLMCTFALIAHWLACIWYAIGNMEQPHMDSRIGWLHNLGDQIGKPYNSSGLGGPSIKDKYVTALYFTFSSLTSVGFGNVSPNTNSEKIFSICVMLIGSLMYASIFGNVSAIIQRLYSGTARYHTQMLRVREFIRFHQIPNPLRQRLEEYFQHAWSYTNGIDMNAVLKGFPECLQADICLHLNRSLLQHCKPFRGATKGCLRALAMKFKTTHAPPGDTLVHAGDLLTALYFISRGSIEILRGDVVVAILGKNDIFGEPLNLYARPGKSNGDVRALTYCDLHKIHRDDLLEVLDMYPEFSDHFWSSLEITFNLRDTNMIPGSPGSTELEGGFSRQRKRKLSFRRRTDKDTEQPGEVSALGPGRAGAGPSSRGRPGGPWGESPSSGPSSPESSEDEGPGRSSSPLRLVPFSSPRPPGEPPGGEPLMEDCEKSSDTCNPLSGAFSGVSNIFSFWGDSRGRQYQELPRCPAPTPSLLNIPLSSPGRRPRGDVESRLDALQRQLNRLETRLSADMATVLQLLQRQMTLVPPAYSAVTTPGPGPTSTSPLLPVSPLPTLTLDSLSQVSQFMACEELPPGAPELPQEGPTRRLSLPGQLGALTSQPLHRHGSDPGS
experimental protocol: primary screen, population patch clamp on CHO cells stably expressing hERG; higher = less effect of the substance
Out of some 310,000 compounds screened, about 14,000 (4.5%) showed an effect of 50% or more. The effect is printed as a negative number. The list comes from a sample in which strong results are over-represented; it also holds close analogues and randomly drawn compounds.
Kindly supply the reported hERG current change (%, negative = inhibition) at 10uM values for the records listed here.
Answers are plain numbers, in %.

> print(dat)
                                   compound  observed.result
1  CC(=O)N1N=C(c2ccccc2)CC1c1ccc2c(c1)OCO2 (centres unmarked)             1.98

Give hERG current change (%, negative = inhibition) at 10uM for each listed item.
1. Cc1ccc(C)c(S(=O)(=O)NCC(=O)Nc2ccc3c(c2)OCO3)c1
2. COc1ccc(C)cc1NCc1cccc(OC)c1OC
3. Cc1c(Cl)cnc(NC(=O)COC(=O)c2ccc3ncsc3c2)c1Cl
4. COc1ccccc1NS(=O)(=O)c1ccc(O)c(C(=O)OCC(=O)c2ccc(Cl)cc2Cl)c1

Solution:
1. 3.55
2. 1.13
3. -2.49
4. 23.4

* * *

target desc: human ether-à-go-go-related gene (hERG) potassium channel (human);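 further: peak tail current of the secondary pulse compared with the same well before compound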
experimental protocol: primary screen, population patch clamp on CHO cells stably expressing hERG; higher = less effect of the substance
The campaign covered roughly 310,000 compounds. About 14,000 (4.5%) showed an effect of 50% or more. Effects have a minus sign here. Only a selection was taken, and strong results are over-represented in it overall.
Kindly supply the reported hERG current change (%, negative = inhibition) at 10uM values for the records listed here.
Give bare numbers, in %.

Give hERG current change (%, negative = inhibition) at 10uM for each listed item.
1. COc1ccc(NC(=O)CSc2nnc(Cc3cccn3C)n2-c2ccc(F)cc2)cc1
2. COc1ccc(-n2c(Cc3cccn3C)nnc2SCC(=O)Nc2ccccc2OC)cc1
3. COc1ccc(-n2c(Cc3cccn3C)nnc2SCC(=O)Nc2ccc(C)cc2)cc1
4. COc1ccc(Cl)cc1NC(=O)CSc1nnc(Cc2cccn2C)n1-c1ccc(F)cc1
5. COc1ccc(-n2c(Cc3cccn3C)nnc2SCC(=O)Nc2ccc(F)cc2F)cc1

Solution:
[-21.7, -38.5, -26.4, -34.6, -57.4]

* * *

Kindly supply the reported hERG current change (%, negative = inhibition) at 10uM values for the records listed here.
target desc: human ether-à-go-go-related gene (hERG) potassium channel (human);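 further: peak tail current of the secondary pulse compared with the same well before compound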
experimental protocol: primary screen, population patch clamp on CHO cells stably expressing hERG; higher = less effect of the substance
Hit rate of the full screen: of about 310,000 compounds, about 14,000 (4.5%) showed an effect of 50% or more. Effects have a minus sign here. The sample as a whole holds a higher share of strong results than the screen did. *1 amine or outer side, *2 acyl side, *3 side chain or, on linkers, in order; H or OH if unused. Where a SMILES comes first, the peptide text is derived from it. Bridges are numbered along the chain shown (N, C = ends). [ ]: non-standard residue; d: D form. ξ: configuration not given here. hSer(Ph(2-I,4-NO2,6-CO)) = O=C([C@H](CCOc1c(I)cc([N+](=O)[O-])cc1C(=O)[*:3])N[*:1])[*:2]; ξD = NC(CC(=O)O)C(=O)O
Answers are plain numbers, in %.

compound	target desc	unit abbreviation	observed result
CCCC(=O)N1CCN(c2ccc(NC(=O)c3ccc(Br)o3)cc2)CC1	human ether-à-go-go-related gene (hERG) potassium channel (human)	%	-8.1
COc1cc(CN2CCN(Cc3ccc(SC)cc3)CC2)cc(OC)c1O.O=C(O)C(=O)O	human ether-à-go-go-related gene (hERG) potassium channel (human)	%	-67.9
O=C(CN1CCOCC1)NCCc1ccccc1	human ether-à-go-go-related gene (hERG) potassium channel (human)	%	16.4
Cc1ccc(C)c(NC(=O)C2C3CCCC2C3c2ccccc2)c1 (stereo not shown)	human ether-à-go-go-related gene (hERG) potassium channel (human)	%	6.75
Cc1ccc(S(=O)(=O)N2CCN(S(=O)(=O)N3CCCCCC3)CC2)cc1	human ether-à-go-go-related gene (hERG) potassium channel (human)	%	20.4

Give hERG current change (%, negative = inhibition) at 10uM for each listed item.
1. Cn1c(/C(C#N)=C/c2ccc(-c3ccc(S(N)(=O)=O)cc3)o2)nc2ccccc21
2. CCC(C)C(NC(=O)OCc1ccccc1)C(=O)NCC(c1ccccc1)N(C)C (stereo not shown)
3. CCOC(=O)c1sc2nc(SCC(=O)N(CC)CC)n(CCCN3CCCC3=O)c(=O)c2c1C
4. COc1cc(OC)nc(NC(=O)CN2CCN(c3ccc(F)cc3)CC2)n1
5. O=C(Oc1ccc(-c2nnco2)cc1)N1CCOCC1
6. COc1cccc(CC(=O)N2CCC(n3nccc3NC(=O)C3CCOC3)CC2)c1 (stereo not shown)
7. O=S(=O)(/N=C(/Nc1cccc2ccccc12)c1ccc(F)cc1)c1ccccc1
8. Cc1ccc(OS(=O)Nc2cccc3nccnc23)cc1 (stereo not shown)

Solution:
-38.1
-7.1
-32.4
-20.1
1.23
21.7
-42.8
-18.6

Give hERG current change (%, negative = inhibition) at 10uM for each listed item.
1. CSc1ccccc1C(=O)NC1CCCN(Cc2ccccc2F)C1 (stereo not shown)
2. O=C(CN1CCCCCCC1)Nc1cc(Cl)cc(Cl)c1
3. COc1ccc(C(=O)N2CCN(Cc3cc(OC)c(O)c(OC)c3)CC2)cc1OC.O=C(O)C(=O)O
4. COc1cc(CN2CCN(C(=O)CC(C)C)CC2)cc(OC)c1O.O=C(O)C(=O)O
5. NC(=O)C(CC(=O)O)NC(=O)[C@@H]1CCOc2c(I)cc([N+](=O)[O-])cc2C(=O)N[C@@H](CCC(=O)O)C(=O)N[C@@H](CO)C(=O)N1 (stereo partly shown) (ES[hSer(Ph(2-I,4-NO2,6-CO))][ξD]-NH2; lactam N-3)
6. CCOC(=O)c1sc2nc(SCC#N)n(CC3CCCO3)c(=O)c2c1C (stereo not shown)

Solution:
[-11.5, 1.75, 8.89, -0.00662, -5.73, -13.5]
